# Method summary: CodeBreaK 100 multiple-dose PK
# Format: in vivo, human
# Protocol conditions: human, plasma, po, 720 mg
Measured quantity: Cmax

-- ask Name the reported Cmax value associated with the molecule C=CC(=O)N1CCN(c2nc(=O)n(-c3c(C)ccnc3C(C)C)c3nc(-c4c(O)cccc4F)c(F)cc23)[C@@H](C)C1
-- reply 5450 ng/mL

###

# Method summary: CodeBreaK 100 multiple-dose PK
# Format: in vivo, human
# Protocol conditions: human, plasma, po, 360 mg
Measured quantity: half-life (min)
Write the number in min without appending the unit.

-- ask If you can, please state the reported half-life value of C=CC(=O)N1CCN(c2nc(=O)n(-c3c(C)ccnc3C(C)C)c3nc(-c4c(O)cccc4F)c(F)cc23)[C@@H](C)C1 [sotorasib] .
-- reply 332
